# switch fluorescence ratio per record follows
test system: ATP; assay: switch fluorescence ratio, 500 uM ATP over buffer (Cy3 cluster intensity, sum of 5 cycles each) (fold (ratio)); higher = stronger signal-on switching upon ATP binding; sequences stand for … in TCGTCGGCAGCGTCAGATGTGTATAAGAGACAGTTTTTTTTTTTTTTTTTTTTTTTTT…TC; conditions: aptamer strand: ATP DNA aptamer (quencher-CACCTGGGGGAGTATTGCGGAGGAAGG + anchor), 100 nM annealed; ATP concentration: 500 uM;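 further: ATP exposure 15 min at 22 °C before imaging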
Just the number, please, no unit after it.

Entry TATGATTTAT — recorded switch fluorescence ratio = 0.995

Entry TTAATTCATG — recorded switch fluorescence ratio = 1.01

Entry GTTGTGGCTC — recorded switch fluorescence ratio = 0.975

Entry GAAGACGTTA — recorded switch fluorescence ratio = 1.04

Entry AATTGGGACA — recorded switch fluorescence ratio = 1

Entry ATTATATGGT — recorded switch fluorescence ratio = 0.98

Pending sequence:
Entry ACGTGGGTAG — recorded switch fluorescence ratio = 0.987
